molecular target: Serine/threonine-protein kinase PLK1 (Homo sapiens) (UniProt P53350); assay: qHTS for Inhibitors of PLK1-PDB (polo-like kinase 1 - polo-box domain): Primary Screen; conditions: Plk1 PBD binding of FITC phosphopeptide, fluorescence polarization; note: potency is the fitted concentration of half-maximal effect; nearly all actives have a fitted effect of over 65% in size
Sequence (P53350 whole entry, looked up, the tested form may be a part): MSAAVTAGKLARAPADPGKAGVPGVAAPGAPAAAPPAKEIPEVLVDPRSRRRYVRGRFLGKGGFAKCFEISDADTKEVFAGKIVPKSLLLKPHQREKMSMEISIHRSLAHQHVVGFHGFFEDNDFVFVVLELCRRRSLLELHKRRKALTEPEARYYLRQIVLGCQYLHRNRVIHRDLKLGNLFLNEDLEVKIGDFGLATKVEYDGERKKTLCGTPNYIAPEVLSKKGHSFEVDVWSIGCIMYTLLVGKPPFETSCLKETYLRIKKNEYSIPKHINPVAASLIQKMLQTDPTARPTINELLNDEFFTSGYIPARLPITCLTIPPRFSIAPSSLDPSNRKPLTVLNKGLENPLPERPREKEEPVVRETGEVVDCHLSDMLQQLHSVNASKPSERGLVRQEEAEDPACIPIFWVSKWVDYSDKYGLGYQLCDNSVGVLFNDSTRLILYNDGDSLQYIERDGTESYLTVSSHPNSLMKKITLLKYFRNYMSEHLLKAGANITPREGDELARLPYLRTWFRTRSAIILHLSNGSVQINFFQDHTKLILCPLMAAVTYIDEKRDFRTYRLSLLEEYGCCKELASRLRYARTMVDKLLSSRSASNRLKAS
Hit rate of the full screen: of about 360,000 compounds, about 10,000 (2.8%) were called active. Inconclusive results (about 4%) are left out. The list comes from a sample in which actives are over-represented; it also holds close analogues and randomly drawn compounds.
Endpoint Name: Potency

Use the examples below as a reference point.
Compound: COCCCNC(=O)c1ccc(CNS(=O)(=O)c2ccc(NC(C)=O)cc2)cc1
Assayed Target: Serine/threonine-protein kinase PLK1 (Homo sapiens) (UniProt P53350)
Potency: 26.7 µM (active)
--
Compound: COc1ccccc1C(=O)NC(=S)Nc1ccc(N2CCOCC2)cc1
Assayed Target: Serine/threonine-protein kinase PLK1 (Homo sapiens) (UniProt P53350)
Potency: 26.7 µM (active)
--
Compound: CC(C)(C)c1nnc(NC(=O)C2c3ccccc3Oc3ccccc32)s1
Assayed Target: Serine/threonine-protein kinase PLK1 (Homo sapiens) (UniProt P53350)
Potency: 2.67 µM (active)
--
Compound: CNC(=O)Nc1cc(C(C)(C)C)no1
Assayed Target: Serine/threonine-protein kinase PLK1 (Homo sapiens) (UniProt P53350)
Potency: 10.6 µM (active)
--
Compound: CCc1c(C)sc(NC(=O)c2cccs2)c1C(N)=O
Assayed Target: Serine/threonine-protein kinase PLK1 (Homo sapiens) (UniProt P53350)
Potency: 4.74 µM (active)

(Q) Any idea what Potency was measured for COc1ccc(OCc2nnc3n2N=C(c2ccccc2)C(CC(=O)O)S3)cc1 (stereo not given) ?
(A) 1.5 µM (active)

(Q) Can you look up the measured Potency of COc1ccc(NC(=O)Nc2ccc3c(c2)C(=O)N([C@H](C)CO)C[C@H](C)[C@@H](CN(C)C(=O)Nc2ccc4c(c2)OCO4)O3)cc1 for me?
(A) 23.8 µM (active)

(Q) Form field: reported Potency of O=C1CSC(=S)N1/N=C/c1ccc(O)c([N+](=O)[O-])c1
(A) 23.8 µM (active)

(Q) Quick check: Potency of CCOC(=O)C1(CCOC)CCN(Cc2cc3ccccc3s2)CC1 ?
(A) 10.6 µM (active)

(Q) Could you tell me which Potency is on file for C/C(=N\Nc1cccc(C(=O)O)c1)c1ccc2c(c1)Nc1ccccc1S2 ?
(A) 26.7 µM (active)

* * *

molecular target: Serine/threonine-protein kinase PLK1 (Homo sapiens) (UniProt P53350); assay: qHTS for Inhibitors of PLK1-PDB (polo-like kinase 1 - polo-box domain): Primary Screen; conditions: Plk1 PBD binding of FITC phosphopeptide, fluorescence polarization; note: potency is the fitted concentration of half-maximal effect; nearly all actives have a fitted effect of over 65% in size
Hit rate of the full screen: of about 360,000 compounds, about 10,000 (2.8%) were called active. Another 4% or so got no clear call; they are omitted. This excerpt belongs to a sample that is enriched for actives.
Endpoint Name: Potency

Check out these entries, answers already filled in.
Compound: CC1CCN(C(=S)c2ccc(-c3ccc(Cl)cc3Cl)o2)CC1
Potency: 21.2 µM (active)
--
Compound: COCc1c(N)c(C)nc(Cl)c1C#N
Potency: 18.9 µM (active)
--
Compound: CCOc1ccc(-n2c(SCC(N)=O)nnc2-c2ccco2)cc1
Potency: 15 µM (active)
--
Compound: O=[N+]([O-])c1c(NCCO)cc(Sc2nc3ccccc3s2)c2nonc12
Potency: 1.68 µM (active)
--
Compound: CCOc1ccccc1NC(=S)C(=C([O-])c1ccc2c(c1)OCCO2)[n+]1ccc(CC)cc1
Potency: 26.7 µM (active)

(Q) Recorded Potency for O=C1CCCCC1Sc1ccc(Cl)cc1[N+](=O)[O-] (stereo not given) , please?
(A) 4.74 µM (active)

(Q) Given the entry O=C(COc1ccc(Cl)cc1)N1CCN(c2cccc(C(F)(F)F)c2)CC1 , report its measured Potency.
(A) 18.9 µM (active)

(Q) Using the record for Cc1ccc(NC(=O)NC(=O)N(C2CCCCC2)S(=O)(=O)c2ccccc2)cc1 , report its Potency.
(A) 29.9 µM (active)

(Q) Tell me the measured Potency of Cc1ccc(NC(=O)C(=O)NCC2CCN(C(=O)c3cccc([N+](=O)[O-])c3)CC2)cc1 , please.
(A) 29.9 µM (active)

(Q) // query Potency value for entry Cc1ccc(CSCC2Nc3ccc(C(=O)N4CCN(c5ccc(F)cc5)CC4)cc3NC2=O)cc1 (stereo not given)
(A) 8.44 µM (active)
